Target Under Test: CD74 on CD74 positive SU-DHL-6 cells, P04233
Sequence (P04233 whole entry): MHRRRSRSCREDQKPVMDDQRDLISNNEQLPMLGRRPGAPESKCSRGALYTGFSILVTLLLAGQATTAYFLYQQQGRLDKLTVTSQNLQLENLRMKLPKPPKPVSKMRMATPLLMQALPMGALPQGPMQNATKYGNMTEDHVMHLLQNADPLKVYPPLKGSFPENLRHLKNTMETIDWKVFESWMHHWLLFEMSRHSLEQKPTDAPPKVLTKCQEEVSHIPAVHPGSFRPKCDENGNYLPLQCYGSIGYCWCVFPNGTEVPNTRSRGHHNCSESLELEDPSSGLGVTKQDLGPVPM
Protocol Description: cell-based or functional assay
Quantity Measured: log10 2nd ADC Cell Killing IC50 (log10 of the value in nM)
Answers are given as log10 of 2nd ADC Cell Killing IC50 in nM.

Requested read-out: log10 2nd ADC Cell Killing IC50. Entry: 1251-D02 heavy chain paired with VL SEQ ID NO: 272 (antibody, V domains shown) VH: QVQLVESGGGVVQPGRSLRLSCAASGFSFASHGMHWVRQAPDKGLEWVAVIWDDGSDRYYADSVKGRFTISRDNSKNTLYLQMNSLRAEDTAVYYCARGGTRVLGAIHGTDVWGQGTTVTVSS VL: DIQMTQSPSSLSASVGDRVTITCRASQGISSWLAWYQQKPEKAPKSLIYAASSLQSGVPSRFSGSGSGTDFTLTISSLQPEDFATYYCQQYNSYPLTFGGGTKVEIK
-1.85

// next record 1251-C03 heavy chain paired with VL SEQ ID NO: 272 (antibody, V domains shown) VH: QVQLVESGGGVVQPGRSLRLSCAASGFNFSSYGMHWVRQAPDKGLEWVAVIWYDGSIKNYADSVKGRFTISRDNSKNTLYLQMNSLRAEDTAVYYCARGGALMRGEFSGHDVWGQGTTVTVSS VL: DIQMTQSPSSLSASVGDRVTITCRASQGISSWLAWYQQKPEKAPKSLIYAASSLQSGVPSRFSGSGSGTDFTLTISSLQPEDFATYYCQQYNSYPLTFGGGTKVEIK
-1.30

Ok, now 1337-A10 light chain paired with VH 1251-A06 (SEQ ID NO: 236) (Fab, V domains shown) VH: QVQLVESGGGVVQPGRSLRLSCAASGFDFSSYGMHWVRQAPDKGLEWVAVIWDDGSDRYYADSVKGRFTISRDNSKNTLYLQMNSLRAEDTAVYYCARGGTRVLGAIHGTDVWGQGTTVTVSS VL: DIQMTQSPSSLSASVGDRVTITCRASQGISSWVAWYQQKPEKAPKSLIYGSSRLQSGVPSRFSGSGSGTDFTLTISSLQPEDFATYYCQQYNTYPLTFGGGTKVEIK
-2.22

Cool, now 1251-D06 heavy chain paired with VL SEQ ID NO: 272 (antibody, V domains shown) VH: QVQLVESGGGVVQPGRSLRLSCAASGFSFGSYGMHWVRQAPDKGLEWVAVVWYDGSKTIYADSVKGRFTISRDNSKNTLYLQMNSLRAEDTAVYYCARGGTLVRGAVYGLDVWGQGTTVTVSS VL: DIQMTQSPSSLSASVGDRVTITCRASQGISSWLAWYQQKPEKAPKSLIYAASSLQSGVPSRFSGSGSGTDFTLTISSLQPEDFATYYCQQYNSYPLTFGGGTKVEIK
-2.40

Another: 1251-B09 heavy chain paired with VL SEQ ID NO: 272 (antibody, V domains shown) VH: QVQLVESGGGVVQPGRSLRLSCAASGFNFSDYGMHWVRQAPDKGLEWVAVTWYDGSREYYADSVKGRFTISRDNSKNTLYLQMNSLRAEDTAVYYCARGGTLVHGALYGNDVWGQGTTVTVSS VL: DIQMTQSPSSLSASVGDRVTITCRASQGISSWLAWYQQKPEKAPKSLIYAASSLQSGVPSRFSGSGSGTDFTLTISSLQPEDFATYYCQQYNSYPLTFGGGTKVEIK
-2.15

Could you do the same for 1337-A08 light chain paired with VH 1251-A06 (SEQ ID NO: 236) (Fab, V domains shown) VH: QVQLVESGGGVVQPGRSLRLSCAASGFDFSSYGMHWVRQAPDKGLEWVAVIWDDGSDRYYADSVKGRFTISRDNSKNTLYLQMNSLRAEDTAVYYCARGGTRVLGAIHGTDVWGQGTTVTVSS VL: DIQMTQSPSSLSASVGDRVTITCRASQDIGSWVAWYQQKPEKAPKSLIYASDSLQSGVPSRFSGSGSGTDFTLTISSLQPEDFATYYCQQYNSYPLTFGGGTKVEIK , please?
-2.15

Let us now turn to 1193-E06b (scFv) scFv: EVQLLESGGGLVQPGGSLRLSCAASGFTFNNTDMSWVRQAPGKGLEWVGIINGSGGATNYADSVKGRFTISRDNSKNTLYLQMNSLRAEDTAVYYCAKFENEWEVSMDYWGQGTLVTVSSGGGGSGGGGSGGGGSEIVLTQSPGTLSLSPGERATLSCRASQSVSSSYLAWYQQKPGQAPRLLIYGASSRATGIPDRFSGSGSGTDFTLTISRLEPEDFAVYYCQQHYTTPPTFGQGTKVEIK
0.94

Let us now turn to 1193-H04b (scFv) scFv: EVQLLESGGGLVQPGGSLRLSCAASGFTFTSSWMSWVRQAPGKGLEWVGIINGYNGITYYADSVKGRFTISRDNSKNTLYLQMNSLRAEDTAVYYCAKPSAPGARRFDYWGQGTLVTVSSGGGGSGGGGSGGGGSEIVLTQSPGTLSLSPGEATLSCRASQSVSSSYLAWYQQRPGQAPRLLIYGASSRATGIPDRFSGSGSGTDFTLTISRLEPEDFAVYYCQQHYTTPPTFGQGTKVEIK
1.17

Request: 1251-A03 heavy chain paired with VL SEQ ID NO: 272 (antibody, V domains shown) VH: QVQLVESGGGVVQPGRSLRLSCAASGFAFSDHGMHWVRQAPDKGLEWVAVIWYDGSHKIYADSVKGRFTISRDNSKNTLYLQMNSLRAEDTAVYYCARGGSLAGGAVYGTDVWGQGTTVTVSS VL: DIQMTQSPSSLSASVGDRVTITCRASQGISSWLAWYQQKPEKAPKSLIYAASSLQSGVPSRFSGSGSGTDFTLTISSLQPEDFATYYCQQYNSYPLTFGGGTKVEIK
-2.00

Same question, 1251-A02 heavy chain paired with VL SEQ ID NO: 272 (antibody, V domains shown) VH: QVQLVESGGGVVQPGRSLRLSCAASGFAFSDHGMHWVRQAPDKGLEWVAVIWYDGSHKIYADSVKGRFTISRDNSKNTLYLQMNSLRAEDTAVYYCARGGSLAGGAVYGTDVWGQGTTVTVSS VL: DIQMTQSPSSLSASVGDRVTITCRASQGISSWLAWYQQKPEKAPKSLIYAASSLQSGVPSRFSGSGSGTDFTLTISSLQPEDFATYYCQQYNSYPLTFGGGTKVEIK this time
-2.05

For 1251-E06 heavy chain paired with VL SEQ ID NO: 272 (antibody, V domains shown) VH: QVQLVESGGGVVQPGRSLRLSCAASGFTFDSYGMHWVRQAPDKGLEWVAVIWYDGSNKVYADSVKGRFTISRDNSKNTLYLQMNSLRAEDTAVYYCARGGMVGQGAMFGLDVWGQGTTVTVSS VL: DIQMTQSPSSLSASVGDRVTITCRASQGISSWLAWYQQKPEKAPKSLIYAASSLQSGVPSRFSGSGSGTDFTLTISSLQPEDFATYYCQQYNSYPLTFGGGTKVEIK then?
-1.82
